biological target: RUNX1 (UniProt Q01196); assay: RUNX1 binding intensity (PBM fluorescence), RUNX1 alone (arbitrary fluorescence units); higher = stronger binding; details: RUNX1 concentration 2 nM; ETS1 concentration 0 nM
Sequence (Q01196 whole entry): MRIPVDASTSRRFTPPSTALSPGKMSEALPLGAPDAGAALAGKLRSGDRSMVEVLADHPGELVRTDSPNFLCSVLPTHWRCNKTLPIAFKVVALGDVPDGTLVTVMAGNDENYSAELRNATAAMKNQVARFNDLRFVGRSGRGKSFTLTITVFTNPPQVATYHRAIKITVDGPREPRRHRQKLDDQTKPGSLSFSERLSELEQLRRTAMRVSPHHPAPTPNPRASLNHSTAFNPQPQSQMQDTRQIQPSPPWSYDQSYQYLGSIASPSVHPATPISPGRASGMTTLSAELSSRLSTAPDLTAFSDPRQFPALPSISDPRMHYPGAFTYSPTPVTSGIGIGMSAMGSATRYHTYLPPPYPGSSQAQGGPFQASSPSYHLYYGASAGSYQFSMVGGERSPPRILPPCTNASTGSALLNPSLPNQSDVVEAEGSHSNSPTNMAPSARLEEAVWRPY
For each entry below, report its RUNX1 binding intensity value.

These recorded examples may help you get a feel for the data.
| ITEM SEQUENCE | DATA VALUE |
| --- | --- |
| GCCGCCTCTTCCTGTGTTGCAAACCACAGGTCCACC | 1570 |
| AGCAGCTGCCAGAGGAAGTCTGCGGTCGGAACAGGC | 1410 |
| AGCTGAGAGCCTGCCGGAAGCCACAGCTTCTTCTCG | 801 |
| CACCCCCCCAGTGCAGGAAGTGGTTTTCGAGGGCAG | 908 |
| CGAAGCCAGGAAATAAGGATAAACCACAGAAAGAAA | 1260 |
| GGAGCAAGGATGACAGGATGTGGCTTAGGGGGAGGC | 708 |
| CTGGGCTCGCCAGGCGGAAGTGGTTGGAGACTGCGT | 668 |
| TCTGTGAAAAAGGATGTGCGGTTATGGAGGAGAACT | 1210 |

For every record below, what is its RUNX1 binding intensity?
1. GCGCACTTCCGGGCTGGTGAACGCGGTGACGTCACC
2. GTTCAGCAGGAAGTGGATGTGGATGTGTGGTTGCCA
3. TCTCTTCCTGTGATGGAAATACATTGAGGTTTGCGA
4. GGCTGCAGGAAGTGGGAAGGTGTGGCTTTGAGTCTC

Result:
804
826
787
755

----------
Target: ETS1 (UniProt P14921)
Sequence: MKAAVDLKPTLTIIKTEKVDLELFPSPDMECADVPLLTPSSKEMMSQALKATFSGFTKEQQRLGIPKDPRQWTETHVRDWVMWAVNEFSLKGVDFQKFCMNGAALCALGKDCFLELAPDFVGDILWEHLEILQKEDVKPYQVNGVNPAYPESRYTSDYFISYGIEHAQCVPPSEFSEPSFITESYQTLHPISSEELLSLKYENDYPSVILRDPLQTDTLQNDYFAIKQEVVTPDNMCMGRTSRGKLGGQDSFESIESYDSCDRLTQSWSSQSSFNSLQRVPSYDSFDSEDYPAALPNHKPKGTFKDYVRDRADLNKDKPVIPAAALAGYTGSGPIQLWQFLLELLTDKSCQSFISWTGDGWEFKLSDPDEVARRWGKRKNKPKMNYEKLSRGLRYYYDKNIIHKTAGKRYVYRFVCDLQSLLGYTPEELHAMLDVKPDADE
Assay: ETS1 binding intensity (PBM fluorescence) in presence of RUNX1, normalised to ETS1-only experiment (arbitrary fluorescence units); higher = stronger binding
Conditions: ETS1 concentration 1 nM; RUNX1 concentration 25 nM
Label Not satisfied if ETS1 binding intensity falls below 800; label Satisfied in every other case.

| ITEM SEQUENCE | ASSIGNED CLASS |
| --- | --- |
| TCCAGGATGTGGGATGCCGTGCTGTACCGCATGTCA | Satisfied |
| AGTGTCCGCCGCTTCCTGGTTGCGGGTCAGCGCCCA | Not satisfied |

Problem: Given `GCCCAGGAAGTGGGTACAAAATGAGCCACAAGACCT` , state whether its ETS1 binding intensity is at least 800.
Result: Satisfied

Problem: Given `TGACATCCTCTGAGGCAGCAAGCTGCGGTGAAGTCT` , state whether its ETS1 binding intensity is at least 800.
Result: Not satisfied

Problem: Given `ATCTTAAGTGTTTCCTGACACCACAAATCCCCAAAC` , state whether its ETS1 binding intensity is at least 800.
Result: Not satisfied

Problem: Given `TTAAACACGGAAGTGCATCGGTTGTTGTGGTTATTC` , state whether its ETS1 binding intensity is at least 800.
Result: Satisfied

----------
Molecular target: ETS1 (UniProt P14921)
Sequence: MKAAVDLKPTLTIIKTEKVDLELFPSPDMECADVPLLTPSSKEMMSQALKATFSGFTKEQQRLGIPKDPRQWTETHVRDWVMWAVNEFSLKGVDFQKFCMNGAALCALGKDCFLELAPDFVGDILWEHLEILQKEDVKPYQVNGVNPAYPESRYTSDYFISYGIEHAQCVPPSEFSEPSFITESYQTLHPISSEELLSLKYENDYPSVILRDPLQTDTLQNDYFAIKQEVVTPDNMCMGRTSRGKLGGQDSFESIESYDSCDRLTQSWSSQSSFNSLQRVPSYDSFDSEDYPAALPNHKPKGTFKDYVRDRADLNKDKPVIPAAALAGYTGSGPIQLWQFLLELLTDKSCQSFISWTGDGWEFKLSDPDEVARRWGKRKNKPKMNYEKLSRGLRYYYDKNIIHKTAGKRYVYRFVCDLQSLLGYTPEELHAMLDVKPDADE
Experiment: ETS1 binding intensity (PBM fluorescence) in presence of RUNX1, normalised to ETS1-only experiment (arbitrary fluorescence units); higher = stronger binding
Conditions: ETS1 concentration 1 nM; RUNX1 concentration 25 nM
For each entry below, report its ETS1 binding intensity value.
Answers are plain numbers.

These recorded examples may help you get a feel for the data.
| ITEM SEQUENCE | MEASUREMENT NAME | DATA VALUE |
| --- | --- | --- |
| TTACTTCTCAGGAAGCGCTGTGGGGCTGGGGTTGCT | ETS1 binding intensity | 513 |
| TGTGATAAGGATGTTCGTGTGCCTTGTGGTCAGGTG | ETS1 binding intensity | 1710 |
| CGAGCTCGGTGTTCCGCTTTTTGTGGGCCGGGTGGG | ETS1 binding intensity | 478 |
| GAGGGCTGCTTCCTGCTCTGTGGAGGCCGCAGCGGG | ETS1 binding intensity | 594 |

For every record below, what is its ETS1 binding intensity?
1. GCCTGAAGGACTTCCGGGAACCGCAAAGCACGGTGT
2. AAAGGCGGAAGGGGGGCAGGGAACCCACAAAACAGA
3. GGGCAGGGCATTTCCTTTGTGGCTGGTGCTCACGGA
4. TGGCAGCCACATCCTGCCTGTGGCTAGGTCAACCCA

Result:
3510
610
413
1290

----------
Biological target: ETS1 (UniProt P14921)
Sequence: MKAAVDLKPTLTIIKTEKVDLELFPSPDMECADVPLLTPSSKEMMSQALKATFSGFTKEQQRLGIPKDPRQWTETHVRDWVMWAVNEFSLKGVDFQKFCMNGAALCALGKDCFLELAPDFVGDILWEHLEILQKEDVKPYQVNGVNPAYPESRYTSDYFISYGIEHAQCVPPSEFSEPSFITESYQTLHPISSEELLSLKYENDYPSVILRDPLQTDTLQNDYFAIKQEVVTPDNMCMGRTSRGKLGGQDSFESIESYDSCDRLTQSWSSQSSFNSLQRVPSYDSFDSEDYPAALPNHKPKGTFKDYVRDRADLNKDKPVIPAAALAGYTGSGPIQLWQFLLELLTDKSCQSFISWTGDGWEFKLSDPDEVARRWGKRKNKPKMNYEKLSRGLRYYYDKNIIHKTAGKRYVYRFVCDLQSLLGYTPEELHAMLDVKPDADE
Assay: ETS1 binding intensity (PBM fluorescence), ETS1 alone (arbitrary fluorescence units); higher = stronger binding
Settings: ETS1 concentration 1 nM; RUNX1 concentration 0 nM
Label false if ETS1 binding intensity falls below 700; label true in every other case.

Before answering, review these 10 worked examples.
| ITEM SEQUENCE | ASSIGNED CLASS |
| --- | --- |
| AGCAGCTGCCAGAGGAAGTCTGCGGTCGGAACAGGC | true |
| CGTCTAATTGCAGGAAGTGGTTTGAAATGTTAATCT | true |
| GGCCCAGGAAAGAGGCAGGGGTGCGGTTTCCCTCCG | false |
| CCTGGGCAAGGCCGGATGCCTGTGGCTTCCAGGCTG | true |
| GTTGGGTGGGGAAGTGGATGGTGGTTTTGGCAGAGG | false |
| AGCGCCCCATCCCGCGGATGTGGTAAAGCTTCGCGC | false |
| ACTGCACGGCTGGGAGGATGTGGTCACACACGCCAC | true |
| GTAAACTAGCTCTTCCGGTCTGTGGCCCTCACAGGA | true |
| TTACTGCCGGAACTTGGGACCTTTGTAACCACGTCT | false |
| GAAACCTCACTCTGAGGATGTGGGTTCTGCCTTCTT | false |

Query sequence follows.
Problem: Given `TAGCCGTACGGAAATGTTTGTGGTTCTCTGCATCTA` , state whether its ETS1 binding intensity is at least 700.
Result: false

----------
For each entry below, report its RUNX1 binding intensity value.
molecular target: RUNX1 (UniProt Q01196); assay: RUNX1 binding intensity (PBM fluorescence), RUNX1 alone (arbitrary fluorescence units); higher = stronger binding; conditions: RUNX1 concentration 2 nM; ETS1 concentration 0 nM
Give bare numbers.

| ITEM SEQUENCE | RUNX1 binding intensity |
| --- | --- |
| GAGTGCCGTTTCCCCCGCTCACCGCGGGCTAGGGAG | 942 |
| CGAACTCCCGTCCGGCCGCGCCCGCAGCCCGCCGCC | 960 |
| CGGCTAGGAAATAAAGAGCCTTCTCTCCGCGGTAGG | 2270 |
| CCCCCACATCCTGTTTGGTTTGTGGGACACCTCAAC | 849 |
| TACTACTTACCAGCAGGATGTGGTCCCTGCCCACTG | 809 |

For every record below, what is its RUNX1 binding intensity?
1. TGACAGACCCGGAAATAAGAGGAGACCACACACTTG
2. AGCCACATCCTCCCTTAGGTCTGACCGCAGCTTAAC
3. TTTTTAAGGTCAGGATGTGGGCACATCTAAGGGGCA
4. GGGGAAGAGGGGAGGATGTCTGAGGTTTTAATTGTA
5. GAAGTGAGGTCAGGATGTGGTGGGTGACCCCTGAAA
6. GCTGCAGCAGGCGGGAAGTCTGCGGTTCGCGGGCTC

Result:
894
4190
816
861
768
1150

Problem: Specify reported RUNX1 binding intensity for the sequence shown: `GACATGCTCCGGAAGCTTGAGGTTTTAACGTTAAGG`
Result: 734
